# assayed system: BRD4 (BD1+BD2) (Homo sapiens, UniProt O60885)
# Construct: 1.8 μg/ml recombinant BRD4 (BD1+BD2 domains) protein
# condition context: read-out: BRD4 Binding Potency
We begin with a simple list: items and their reported IC50.
readout label: IC50

{"columns": ["compound", "result"],
 "data": [
  ["CCN(Cc1ccc(OCCCNC(=O)C[C@@H]2N=C(c3ccc(Cl)cc3)c3c(sc(C)c3C)-n3c(C)nnc32)cc1)Cc1ccc(-n2c(O)nnc2-c2cc(C(C)C)c(O)cc2O)cc1 [Compound 100, formic acid]", "100 to 1000 nM"],
  ["Cc1sc2c(c1C)C(c1ccc(Cl)cc1)=N[C@@H](CC(=O)NCc1ccc(CN3CCC(Cc4ccc(-n5c(O)nnc5-c5cc(C(C)C)c(O)cc5O)cc4)CC3)cc1)c1nnc(C)n1-2 [Compound 89, trifluoroacetic acid]", "100 to 1000 nM"],
  ["Cc1sc2c(c1C)C(c1ccc(Cl)cc1)=N[C@@H](CC(=O)N1CCC(CN3CCN(Cc4ccc(-n5c(C(=O)NCC(F)(F)F)nnc5-c5cc(C(C)C)c(O)cc5O)cc4)CC3)CC1)c1nnc(C)n1-2 [Compound 13]", "100 to 1000 nM"],
  ["Cc1sc2c(c1C)C(c1ccc(Cl)cc1)=N[C@@H](CC(=O)N1CCC(CCN3CCC(Cc4ccc(-n5c(O)nnc5-c5cc(C(C)C)c(O)cc5O)cc4)CC3)CC1)c1nnc(C)n1-2 [Compound 80, trifluoroacetic acid]", "< 100 nM"],
  ["CCn1c(=O)/c(=C2\\Sc3ccccc3N2C)s/c1=C\\c1cccc[n+]1CCNC(=O)C[C@@H]1N=C(c2ccc(Cl)cc2)c2c(sc(C)c2C)-n2c(C)nnc21 [Compound 8]", "100 to 1000 nM"],
  ["CCc1cc(-c2nnc(O)n2-c2ccc(CNC(=O)C[C@@H]3N=C(c4ccc(Cl)cc4)c4c(sc(C)c4C)-n4c(C)nnc43)cc2)c(O)cc1O [Compound 56]", "100 to 1000 nM"],
  ["CCc1cc(-c2nnc(C(=O)NCC(F)(F)F)n2-c2ccc(CC3CCN(CC4CCN(C(=O)C[C@@H]5N=C(c6ccc(Cl)cc6)c6c(sc(C)c6C)-n6c(C)nnc65)CC4)CC3)cc2)c(O)cc1O [Compound 86, trifluoroacetic acid]", "100 to 1000 nM"],
  ["COc1cccc(-c2cc(C(=O)Nc3ccc(-c4ccc(OC5CCN(C)CC5)cc4OCCN(C)CC[C@@H]4N=C(c5ccc(Cl)cc5)c5c(sc(C)c5C)-n5c(C)nnc54)cc3)ccc2OC)c1 [Compound 135]", "100 to 1000 nM"],
  ["CCc1cc(-c2nnc(O)n2-c2ccc(CN3CCC(C(=O)N4CCC(CNCC[C@@H]5N=C(c6ccc(Cl)cc6)c6c(sc(C)c6C)-n6c(C)nnc65)C4)CC3)cc2)c(O)cc1O (stereo partly drawn) [Compound 67, trifluoroacetic acid]", "100 to 1000 nM"],
  ["Cc1sc2c(c1C)C(c1ccc(Cl)cc1)=N[C@@H](CCNCCOCCOc1ccc(-n3c(O)nnc3-c3cc(C(C)C)c(O)cc3O)cc1)c1nnc(C)n1-2 [Compound 63, trifluoroacetic acid]", "100 to 1000 nM"],
  ["Cc1sc2c(c1C)C(c1ccc(Cl)cc1)=N[C@@H](CC(=O)NCC(=O)NCC1CCN(C(=O)C3CCN(Cc4ccc(-n5c(O)nnc5-c5cc(C(C)C)c(O)cc5O)cc4)CC3)C1)c1nnc(C)n1-2 (stereo partly drawn) [Compound 47, trifluoroacetic acid]", "< 100 nM"],
  ["Cc1nn(-c2ccc(C(N)=O)c(NCCOCCOCCNC(=O)C[C@@H]3N=C(c4ccc(Cl)cc4)c4c(sc(C)c4C)-n4c(C)nnc43)c2)c2c1C(=O)CC(C)(C)C2 [Compound 21, trifluoroacetic acid]", "> 1000 nM"],
  ["Cc1sc2c(c1C)C(c1ccc(Cl)cc1)=N[C@@H](CC(=O)N(C)[C@H](C)c1ccc(CN3CCC(Cc4ccc(-n5c(O)nnc5-c5cc(C(C)C)c(O)cc5O)cc4)CC3)cc1)c1nnc(C)n1-2 [Compound 93, trifluoroacetic acid]", "100 to 1000 nM"],
  ["CCNC(=O)c1nnc(-c2cc(CC)c(O)cc2O)n1-c1ccc(CC2CCN(CC3CCN(C(=O)C[C@@H]4N=C(c5ccc(Cl)cc5)c5c(sc(C)c5C)-n5c(C)nnc54)CC3)CC2)cc1 [Compound 87]", "100 to 1000 nM"],
  ["Cc1sc2c(c1C)C(c1ccc(Cl)cc1)=N[C@@H](CCNCCOc1ccc(-n3c(O)nnc3-c3cc(C(C)C)c(O)cc3O)cc1)c1nnc(C)n1-2 [Compound 62, trifluoroacetic acid]", "> 1000 nM"],
  ["CCCc1cc(-c2nnc(O)n2-c2ccc(CN3CCN(CC4CCN(C(=O)C[C@@H]5N=C(c6ccc(Cl)cc6)c6c(sc(C)c6C)-n6c(C)nnc65)CC4)CC3)cc2)c(O)cc1O [Compound 11, trifluoroacetic acid]", "100 to 1000 nM"],
  ["Cc1sc2c(c1C)C(c1ccc(Cl)cc1)=N[C@@H](CC(=O)N1CCC(N3CCN(Cc4ccc(-n5c(O)nnc5-c5cc(C(C)C)c(O)cc5O)cc4)CC3)CC1)c1nnc(C)n1-2 [Compound 42, trifluoroacetic acid]", "100 to 1000 nM"],
  ["COc1cccc(-c2cc(C(=O)Nc3ccc(-c4ccc(OC5CCN(C(=O)CNC(=O)C[C@@H]6N=C(c7ccc(Cl)cc7)c7c(sc(C)c7C)-n7c(C)nnc76)CC5)cc4OCCN(C)C)cc3)ccc2OC)c1 [Compound 138]", "< 100 nM"]
]}

----------
Reported IC50 values are given for each entry in this list.
# assayed system: HSP90α (Homo sapiens)
readout label: IC50

{"columns": ["molecule", "result"],
 "data": [
  ["CCc1cc(-c2nnc(O)n2-c2ccc(CC3CCN(CC4CCN(C(=O)C[C@@H]5N=C(c6ccc(Cl)cc6)c6c(sc(C)c6C)-n6c(C)nnc65)CC4)CC3)cc2)c(O)cc1O", "100 to 1000 nM"],
  ["Cc1sc2c(c1C)C(c1ccc(Cl)cc1)=N[C@@H](CC(=O)Nc1ccc(NC(=O)C3CCN(Cc4ccc(-n5c(O)nnc5-c5cc(C(C)C)c(O)cc5O)cc4)CC3)cc1)c1nnc(C)n1-2", "> 1000 nM"],
  ["CCCc1cc(-c2nnc(O)n2-c2ccc(CN3CCN(CC4CCN(C(=O)C[C@@H]5N=C(c6ccc(Cl)cc6)c6c(sc(C)c6C)-n6c(C)nnc65)CC4)CC3)cc2)c(O)cc1O", "< 100 nM"],
  ["Cc1sc2c(c1C)C(c1ccc(Cl)cc1)=N[C@@H](CC(=O)NCC(=O)NCC1CCN(C(=O)C3CCN(Cc4ccc(-n5c(O)nnc5-c5cc(C(C)C)c(O)cc5O)cc4)CC3)C1)c1nnc(C)n1-2 (some centres unmarked)", "< 100 nM"],
  ["CCn1c(=O)/c(=C2\\Sc3ccccc3N2C)s/c1=C\\c1cccc[n+]1CCCNC(=O)C[C@@H]1N=C(c2ccc(Cl)cc2)c2c(sc(C)c2C)-n2c(C)nnc21", "> 1000 nM"]
]}

----------
pIC50: −log10 of the molar value.
A set of compounds tested on HSP90α (Homo sapiens, UniProt P07900), with measured pIC50:
readout label: pIC50

{"columns": ["compound", "result"],
 "data": [
  ["Cc1sc2c(c1C)C(c1ccc(Cl)cc1)=N[C@@H](CC(=O)N1CCN(Cc3ccc4c(c3)CN(C(=O)c3cc(C(C)C)c(O)cc3O)C4)CC1)c1nnc(C)n1-2 [Compound 141]", "6.00 to 7.00"],
  ["Cc1sc2c(c1C)C(c1ccc(Cl)cc1)=NC(CC(=O)N1CCC(Cc3ccc(CN(C)Cc4ccc(-n5c(C(=O)NCC(F)(F)F)nnc5-c5cc(C(C)C)c(O)cc5O)cc4)cc3)CC1)c1nnc(C)n1-2 (stereo in doubt) [Compound 84, trifluoroacetic acid]", "6.00 to 7.00"],
  ["Cc1sc2c(c1C)C(c1ccc(Cl)cc1)=N[C@@H](CC(=O)NCCOCCOCCOc1ccc(-n3c(S)nnc3-c3cc(C(C)C)c(O)cc3O)cc1)c1nnc(C)n1-2 [Compound 34]", "< 6.00"],
  ["CCc1cc(-c2nnc(C(=O)NCC(F)(F)F)n2-c2ccc(CN3CCN(CC4CCN(C(=O)C[C@@H]5N=C(c6ccc(Cl)cc6)c6c(sc(C)c6C)-n6c(C)nnc65)CC4)CC3)cc2)c(O)cc1O.Cl [Compound 78, hydrochloride]", "6.00 to 7.00"]
]}

----------
In what follows, each item is paired with its pIC50 for HSP90α (Homo sapiens, UniProt P07900).
pIC50: −log10 of the molar value.

{"columns": ["compound", "pIC50"],
 "data": [
  ["Cc1sc2c(c1C)C(c1ccc(Cl)cc1)=N[C@@H](CC(=O)N1CCC(CN3CCN(Cc4ccc(-n5c(C(=O)NC(C)C)nnc5-c5cc(C(C)C)c(O)cc5O)cc4)CC3)CC1)c1nnc(C)n1-2 [Compound 108, trifluoroacetic acid]", "< 6.00"],
  ["Cc1sc2c(c1C)C(c1ccc(Cl)cc1)=N[C@@H](CC(=O)N1CCC(CN3CCN(Cc4ccc(-n5c(C(=O)NCC(F)(F)F)nnc5-c5cc(C(C)C)c(O)cc5O)cc4)CC3)CC1)c1nnc(C)n1-2 [Compound 13]", "6.00 to 7.00"],
  ["Cc1sc2c(c1C)C(c1ccc(Cl)cc1)=N[C@@H](CC(=O)N(C)[C@H](C)c1ccc(CN3CCC(Cc4ccc(-n5c(O)nnc5-c5cc(C(C)C)c(O)cc5O)cc4)CC3)cc1)c1nnc(C)n1-2 [Compound 93, trifluoroacetic acid]", "6.00 to 7.00"],
  ["Cc1sc2c(c1C)C(c1ccc(Cl)cc1)=N[C@@H](CC(=O)NCC(=O)NCCOCCOc1ccc(-n3c(O)nnc3-c3cc(C(C)C)c(O)cc3O)cc1)c1nnc(C)n1-2 [Compound 55]", "6.00 to 7.00"],
  ["COc1cccc(-c2cc(C(=O)Nc3ccc(-c4ccc(OC5CCN(C(=O)CNC(=O)C[C@@H]6N=C(c7ccc(Cl)cc7)c7c(sc(C)c7C)-n7c(C)nnc76)CC5)cc4O)cc3)ccc2OC)c1 [Compound 134]", "< 6.00"]
]}
